- targetUnderTest: human intestinal AP (Homo sapiens)
- Construct: purchased Aalto Scientific, Ltd., Vista, Calif
- Sequence (P09923 20-503 limits assumed): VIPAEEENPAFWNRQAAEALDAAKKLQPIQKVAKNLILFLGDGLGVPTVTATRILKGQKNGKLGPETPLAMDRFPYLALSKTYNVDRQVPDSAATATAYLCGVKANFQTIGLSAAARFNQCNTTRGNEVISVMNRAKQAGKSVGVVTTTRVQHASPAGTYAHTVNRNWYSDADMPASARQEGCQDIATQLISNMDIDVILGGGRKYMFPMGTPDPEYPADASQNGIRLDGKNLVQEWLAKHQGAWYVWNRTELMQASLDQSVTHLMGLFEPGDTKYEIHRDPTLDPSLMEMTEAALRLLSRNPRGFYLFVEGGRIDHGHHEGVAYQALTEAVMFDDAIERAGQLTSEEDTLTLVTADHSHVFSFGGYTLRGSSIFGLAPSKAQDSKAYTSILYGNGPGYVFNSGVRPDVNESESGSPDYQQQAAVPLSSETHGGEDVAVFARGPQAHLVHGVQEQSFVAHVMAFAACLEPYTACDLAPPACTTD
- procedureText: Inhibition of human intestinal AP isoenzyme (p-nitrophenylphosphate hydrolysis)
- Format: biochemical
- experimentalParameters: pH 10.2, 37° C., p-nitrophenylphosphate 2.2 mmol/liter; from dose response curves; read-out: [I]50 Intestinal AP: concentration of inhibitor that gives 50% inhibition of enzyme activity
pIC50: −log10 of the molar value.
resultType: pIC50

1) c1ccc(Oc2ccc(C3CN4CCSC4=N3)cc2)cc1 (racemic) = 3.00
2) c1ccc([C@H]2CN3CCSC3=N2)cc1 [Levamisole, reference compound] = 1.92
3) C1=CN2CC(c3ccc(Oc4ccccc4)cc3)N=C2S1 (racemic) = 3.70

* * *

Collected IC50 values appear next to each entry.
- targetUnderTest: human bone AP (Homo sapiens, UniProt P05186)
- Construct: Human bone AP was isolated from human osteosarcoma-derived cell line, Saos-2
- Sequence (P05186 18-502 limits assumed): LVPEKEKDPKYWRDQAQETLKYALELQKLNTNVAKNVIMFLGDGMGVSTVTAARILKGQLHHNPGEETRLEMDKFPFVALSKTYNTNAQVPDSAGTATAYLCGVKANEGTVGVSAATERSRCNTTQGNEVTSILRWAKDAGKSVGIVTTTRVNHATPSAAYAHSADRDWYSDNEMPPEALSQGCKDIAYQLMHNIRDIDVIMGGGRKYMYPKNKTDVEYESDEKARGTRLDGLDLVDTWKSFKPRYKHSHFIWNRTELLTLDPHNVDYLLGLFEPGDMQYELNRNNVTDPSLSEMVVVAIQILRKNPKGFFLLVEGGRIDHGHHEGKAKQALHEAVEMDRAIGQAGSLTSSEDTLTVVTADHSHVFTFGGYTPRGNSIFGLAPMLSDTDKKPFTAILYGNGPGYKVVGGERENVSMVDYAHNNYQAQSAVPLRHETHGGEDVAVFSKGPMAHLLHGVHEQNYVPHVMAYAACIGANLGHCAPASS
- procedureText: Inhibition of human bone AP isoenzyme (p-nitrophenylphosphate hydrolysis)
- experimentalParameters: pH 10.2, 37° C., p-nitrophenylphosphate 2.2 mmol/liter; from dose response curves; read-out: [I]50 Bone AP: concentration of inhibitor that gives 50% inhibition of enzyme activity
resultType: IC50 (nM)

1. C1=CN2CC(c3ccc(Oc4ccccc4)cc3)N=C2S1 (racemic) [API-2] = 600
2. c1ccc(Oc2ccc(C3CN4CCSC4=N3)cc2)cc1 (racemic) [API-1] = 4000

* * *

Collected IC50 values appear next to each entry.
- targetUnderTest: human placental AP (Homo sapiens, UniProt P05187)
- Construct: purchased Sigma Chemical Co., St. Louis, Mo
- Sequence (P05187 23-506 limits assumed): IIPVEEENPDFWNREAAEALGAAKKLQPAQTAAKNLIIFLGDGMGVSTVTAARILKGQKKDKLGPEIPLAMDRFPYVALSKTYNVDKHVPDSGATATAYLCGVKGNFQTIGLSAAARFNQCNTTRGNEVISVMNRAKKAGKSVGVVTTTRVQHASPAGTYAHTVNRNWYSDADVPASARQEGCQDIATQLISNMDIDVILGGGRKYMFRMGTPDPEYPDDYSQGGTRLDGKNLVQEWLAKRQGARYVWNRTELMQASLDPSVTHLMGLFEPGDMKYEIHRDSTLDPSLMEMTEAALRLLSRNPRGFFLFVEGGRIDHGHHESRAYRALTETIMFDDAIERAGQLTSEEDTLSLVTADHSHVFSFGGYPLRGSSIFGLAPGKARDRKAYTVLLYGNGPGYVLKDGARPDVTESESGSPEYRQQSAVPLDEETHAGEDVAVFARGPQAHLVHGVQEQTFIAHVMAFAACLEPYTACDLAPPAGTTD
- procedureText: Inhibition of human placental AP isoenzyme (p-nitrophenylphosphate hydrolysis)
- Format: biochemical
- experimentalParameters: pH 10.2, 37° C., p-nitrophenylphosphate 2.2 mmol/liter; from dose response curves; read-out: [I]50 Placental AP: concentration of inhibitor that gives 50% inhibition of enzyme activity
resultType: IC50 (µM)

1) c1ccc(Oc2ccc(C3CN4CCSC4=N3)cc2)cc1 (racemic) = 160
2) C1=CN2CC(c3ccc(Oc4ccccc4)cc3)N=C2S1 (racemic) = 26
3) c1ccc(-c2ccc(C3CN4CCSC4=N3)cc2)cc1 (racemic) = 500
4) c1ccc([C@H]2CN3CCSC3=N2)cc1 [Levamisole, reference compound] = 2200
